# Test system: barnyardgrass (Echinochloa crus-galli, ECHCG)
# PROCEDURE_TEXT: Post-emerge test, greenhouse herbicide activity screening
# Format: in vivo
# TEST_CONDITIONS: 63 g ai/ha; post-emerge; 14 days after application; rating scale 0-100
PARAMETER_MEASURED: Post-emerge Herbicidal Activity ECHCG (phytotoxicity rating)
Returns: the value as a bare number; no unit string appended.

Request: What value of measured Post-emerge Herbicidal Activity ECHCG (phytotoxicity rating) is listed for COc1c(Cl)cc(F)c(-n2c(=O)cc(C(F)(F)F)n(C)c2=O)c1SC [Compound 17-1] ?
Response: 0

Request: What value of measured Post-emerge Herbicidal Activity ECHCG (phytotoxicity rating) is listed for COc1c(Cl)cc(F)c(-n2c(=O)cc(C(F)(F)F)n(C)c2=O)c1NNC(=O)Oc1ccccc1 [15-7] ?
Response: 40

Request: What value of measured Post-emerge Herbicidal Activity ECHCG (phytotoxicity rating) is listed for COc1c(Cl)cc(F)c(-n2c(=O)cc(C(F)(F)F)n(C)c2=O)c1NN=Cc1ccc2ccccc2c1 [15-22] ?
Response: 40
